meta.source: PubChem BioAssay AID602322

# System Under Test: UniProt Q91WC9
# Sequence (Q91WC9 whole entry, looked up): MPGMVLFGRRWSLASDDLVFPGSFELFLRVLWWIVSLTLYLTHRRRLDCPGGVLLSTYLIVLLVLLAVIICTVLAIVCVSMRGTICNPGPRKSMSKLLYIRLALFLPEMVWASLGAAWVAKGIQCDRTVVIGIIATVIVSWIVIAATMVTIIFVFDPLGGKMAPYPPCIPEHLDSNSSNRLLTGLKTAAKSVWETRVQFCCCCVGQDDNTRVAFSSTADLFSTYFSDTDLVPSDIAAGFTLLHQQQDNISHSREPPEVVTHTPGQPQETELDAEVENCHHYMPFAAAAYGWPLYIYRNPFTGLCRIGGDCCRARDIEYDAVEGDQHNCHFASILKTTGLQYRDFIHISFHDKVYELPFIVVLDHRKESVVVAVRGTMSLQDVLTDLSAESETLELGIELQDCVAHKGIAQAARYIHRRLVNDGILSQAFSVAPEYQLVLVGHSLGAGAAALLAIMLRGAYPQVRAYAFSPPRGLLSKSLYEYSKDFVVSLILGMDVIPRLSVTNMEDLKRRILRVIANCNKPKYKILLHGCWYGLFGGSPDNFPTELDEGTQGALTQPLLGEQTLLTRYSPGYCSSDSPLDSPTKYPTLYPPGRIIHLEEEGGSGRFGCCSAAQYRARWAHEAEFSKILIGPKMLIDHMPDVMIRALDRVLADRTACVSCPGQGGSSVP
# Test Name: ABHD6 antitarget inhibition potency, dose response, selectivity assay for DAGLb inhibitor project, biochemical, gel-based competitive ABPP, fluorescent probe, mouse (AID 602322)
# Experimental Parameters: proteome, DAGLb
Activity calls are given as the source filed them. The rule behind the calls is not given here.

{"Molecule": "O=C(O)c1cccc(-c2ccc(-c3cn(C(=O)N4CCCCC4Cc4ccccc4)nn3)cc2)c1 (centres undefined)", "System Under Test": "UniProt Q91WC9", "IC50": "> 100 nM (inactive)"}
{"Molecule": "O=C(N1CCCCC1c1ccccc1)n1cc(-c2ccc(-c3ccccc3)cc2)nn1 (centres undefined)", "System Under Test": "UniProt Q91WC9", "IC50": "> 100 nM (inactive)"}
{"Molecule": "COc1ccc(-c2ccc(-c3cn(C(=O)N4CCCCC4c4ccccc4)nn3)cc2)cc1 (centres undefined)", "System Under Test": "UniProt Q91WC9", "IC50": "> 3330 nM (inactive)"}
{"Molecule": "O=C(N1CCCCC1c1ccccc1)n1cc(-c2ccc(-c3cccc(CO)c3)cc2)nn1 (centres undefined)", "System Under Test": "UniProt Q91WC9", "IC50": "> 100 nM (inactive)"}
